- assay-remarks: compound effects on lung adenocarcinoma cell viability – A549, calcein-AM fluorescence, 48 h, basal, profiling panel (AID 1162); further: test concentration not given here
- conditions: higher = more signal
Could you label it Y if measured z-score is 0.2 or higher, and N otherwise?

compound	assigned-category
CC(CO)N1C(=O)[C@]2(C)C3C(=O)OCCC/C=C\[C@H]3OC23C=CCN(c2ccc(Cl)cc2)C(=O)[C@@H]13 (stereo partly specified)	Y
CC(C)C(CO)N1C(=O)[C@@H]2[C@H]3C(=O)OCC=C[C@H]3OC23C=CCN(c2ccc(Cl)cc2)C(=O)[C@@H]13 (stereo partly specified)	N
CCOC(=O)C[C@H]1[C@H](OC(=O)c2ccccc2-c2ccccc2)[C@@H](NC(=O)c2ccc3ccccc3c2)c2cc(OCCCO)ccc2N1C(=O)c1ccccc1	N

Hi, just wondering whether CCCCC(CC)C(O)C1C=CC2C(=O)N(c3ccccc3)C(=O)C2N1Nc1ccc(C#N)cc1 (stereo unspecified) shows z-score of 0.2 or higher.
Y

Hi, just wondering whether C=CCC(OC(C)=O)[C@@H]1[C@@H](N(Cc2cc3ccccc3o2)C(=O)Cc2ccc(F)cc2)c2cc(OCCCO)ccc2N1C(=O)Cc1ccc2ccccc2c1 (stereo partly specified) shows z-score of 0.2 or higher.
N

Hi, just wondering whether "O=C1N(CCS(=O)(=O)c2ccccc2)c2ccccc2[C@H]2OC(c3ccc(OCCCO)cc3)=N[C@@]12Cc1ccccc1" shows z-score of 0.2 or higher.
N

Hi, just wondering whether "CO[C@H]1O[C@H](CO)[C@@H](OC(=O)CCc2ccccc2)[C@@H]2OC(=O)[C@@H](Cc3ccccc3)C/C=C/C[C@H](Cc3ccccc3)C(=O)O[C@@H]12" shows z-score of 0.2 or higher.
Y

Hi, just wondering whether "CC(C)[Si]1(C(C)C)OCc2cc(-c3ccc(-c4ccc(Cl)c(Cl)c4)o3)nc(-c3ccccc3)c21" shows z-score of 0.2 or higher.
N

---

Recorded composite z-score by entry
- assay-remarks: small molecules captured by biotinylated probe aFSTL3 – biochemical, small-molecule microarray, fluorescence 635/667, stem cell growth factor project, primary screen (AID 1064);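 further: measures binding of the biotinylated anti-FSTL3 antibody to printed compounds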
- conditions: higher = more signal
Please reply with the number alone, leaving off any unit.

Study these solved cases before continuing.
compound	observed-measurement
O=C1C[C@]2(c3ccc([N+](=O)[O-])cc3)C(=O)N(C3CC3)c3cc(CO)ccc3[C@H]2N1CC12CC3CC(CC(C3)C1)C2	-0.224
C=CCNC(=O)[C@H]1[C@@H]2C(=O)O[C@@H](c3ccccc3)[C@@H](c3ccccc3)N2[C@@H](c2ccccc2OCCO)[C@]12C(=O)N(C(=O)OCCOC)c1ccc(C#CC3(O)CCCCCC3)cc12	-0.192
C=CCN1Cc2ccccc2[C@@H]2OC(c3ccc(OCCCO)cc3)=N[C@]2(CC=C)C1=O	1.41
O=C1OCCC/C=C\[C@H]2OC34C=CCN(c5ccc6ccccc6c5)C(=O)[C@H]3N(CCO)C(=O)[C@@H]4C12 (stereo partly drawn)	0.24
Cc1ccc(S[C@]2(C(=O)O)CC(=O)N(C3CCCCC3)[C@@H]2c2ccc(CO)cc2I)cc1	-0.0155
COC(=O)[C@@]1(Cc2ccc(OC)cc2)[C@H]2c3cc(C(=O)N(C)C)n(Cc4ccc(OC(F)(F)F)cc4)c3C[C@H]2CN1C(=O)c1ccccc1	0.363
O=C(c1ccccc1)N1C(=O)[C@]2(Cc3ccccc31)N=C(c1ccc(OCCCO)cc1)O[C@@H]2c1ccccc1	-0.203

// switching to the query compound
Quick one: composite z-score of "CCOC(=O)C[C@H]1[C@H](OC(=O)c2cc3ccccc3oc2=O)[C@@H](NC(=O)CC(C)C)c2cc(OCCCO)ccc2N1C(=O)c1ccc2ccccc2n1" ?
-0.444
